B1: NR2F2 (parent)
chain: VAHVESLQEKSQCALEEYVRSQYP

- Variants of: B1
- method: protein stability index of a GFP-peptide fusion (GPS, HEK-293T) (PSI 1-6); higher = more stable;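 also: lentivirally expressed fusions sorted by FACS into six bins by GFP to DsRed ratio, PSI derived from sequencing read proportions per bin multiplied by bin number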
- conditionDescription: c terminus: a fixed tail appended
Returns met if the recorded protein stability index is greater than or equal to 4, and not met otherwise.

Below are worked cases with known answers.
[
  {
    "mutations": "E17R",
    "classification": "not met"
  },
  {
    "mutations": "E9M",
    "classification": "not met"
  },
  {
    "mutations": "H3C",
    "classification": "not met"
  },
  {
    "mutations": "E16L",
    "classification": "not met"
  }
]

Task: State whether the measured protein stability index reaches 4, counting equality as reaching it, for `S21K`
Result: not met

Task: State whether the measured protein stability index reaches 4, counting equality as reaching it, for `A14M`
Result: not met

Task: State whether the measured protein stability index reaches 4, counting equality as reaching it, for `Q12R`
Result: not met

Task: State whether the measured protein stability index reaches 4, counting equality as reaching it, for `V4W`
Result: not met
